- measured_target: T1, 4H3185-bA
- T1 chain: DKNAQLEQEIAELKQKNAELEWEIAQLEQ
- assay_summary: two-hybrid library CCNG1;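 note: natural log of median RNA to DNA barcode read ratio; higher means stronger binding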
Class boundaries, taken from values of interaction score, are as follows: bin A: < -0.7; bin B: ≥ -0.7 and < -0.1; bin C: ≥ -0.1

Illustrative cases are given below, each with its answer.
- binder: "DKIAQLEQKNAELEQEIAELKWEIAQLKQ [4H2442-bA]"
  group: "bin B"
- binder: "DENAQLEQKNAELEQKIAELEWKIAQLKQ [4H1446-bA]"
  group: "bin C"
- binder: "DKNAQLEQEIAELKQKNAELEWEIAQLEQ [4H3185-bA]"
  group: "bin A"
- binder: "DENAQLKQKIAELEQKNAELEWKIAQLEQ [4H1845-bA]"
  group: "bin B"

Inquiry: Hi there! Could you help me figure out the category for DKNAQLEQEIAELEQKIAELEWKNAQLKQ [4H3112-bA] please?
Reply text: bin C
